protocol_summary: protein stability index of a GFP-peptide fusion (yeast GPS) (PSI 1-4); higher = more stable; sorted into four equal gates, so the index is relative within each strain
stated_conditions: pdr5∆
Rule: protein stability index of 3 or more gives true (1); anything lower gives false (0).

Use the examples below as a reference point.
ERKRKSVRGAIVGPDLA [RPS6A]    true (1)
YKIPKVMKDIYKVENVT [ESC2]    true (1)
GMLAMASLHSKELTRIP [MED4]    false (0)

Exam item: Can SHAVEFFMSERSSRLHI [YML103C/NUP188] be said to have protein stability index at or above 3?
Marked response: false (0)

Exam item: Would you say HIVQDCTLTADGAYALS [ASC1] shows protein stability index at minimum 3?
Marked response: false (0)

Exam item: Say whether QANIQLYSIREDYELSP [PRE1] shows protein stability index of 3 or more.
Marked response: false (0)

Taken from the supplement of paper PMC9732359.
